- Tgt: corticotropin releasing factor 1 receptor
- Assay procedure: cell-based or functional assay
Ends that are not written are not given here.
Task for the reader: assign each of the following binders its reported CRF1R Emax %.
Numbers only, in %.

In [3]: df
Out[3]:
                                     binder   metric_name  assay_value
0  DNPSLSIDLPLLLLRTLLELEKTQSQRERAEQNAHIFAHV-NH2 [SEQ ID NO 328]  CRF1R Emax %         30.7
1  ZGPPISIDLPYWLLRKMIEIEKQEKEKQQAANNALLLDTI (C-terminal amide) [SEQ ID NO 310]  CRF1R Emax %         45.3
2  ZGPPISIDLPLQLLRKMIEIEKQEKEKQQATTNARLLDTV (C-terminal amide) [SEQ ID NO 246]  CRF1R Emax %           33
3  DNPSLSIDLPLLLLRTLLELARTQSQRERAEQNARIFARV-NH2 [SEQ ID NO 340]  CRF1R Emax %           96
4  DNPSLSIDVPFFLLRTLLELEKTQSQRERAEQNARIFARV-NH2 [SEQ ID NO 386]  CRF1R Emax %         78.2

Exam item: Return reported CRF1R Emax %. Input binder: IVLSLDVPIGLLQKVIEIEKQEKEKQQATTNARILARV-NH2 [SEQ ID NO 300]
Marked response: 7.95

Data credit: patent US20030148956A1
